test: TIMS collisional cross section (CCS, N2) of the lipid ion; higher = larger ion cross section; settings: sample type: Liver; ionization mode: positive; one isomer drawn
Parameter: TIMS collisional cross section (Å²)

| Molecule | Numeric Result |
| --- | --- |
| CCCCCCCC/C=C\CCCCCCCC(=O)O[C@H](COC(=O)CCCCCCCCCCCCCCC)COP(=O)(O)OCCN [PE 16:0@_18:1] (ion (formula + adduct): [C39H76NO8P+H] 1+) | 275.7 |
| CCCCCCCC/C=C\CCCCCCCCCCCCCC(=O)N[C@@H](CO)[C@H](O)/C=C/CCCCCCCCCCCCC [Cer d18:1_24:1@] (ion (formula + adduct): [C42H81NO3+H] 1+) | 283 |
| CCCCCCCC/C=C\CCCCCCCC(=O)O[C@H](COC(=O)CCCCCCCCCCCCCCCC)COC(=O)CCCCCCCCCCCCCCCCCCCCC [TG 17:0_18:1_22:0] (ion (formula + adduct): [C60H114O6+NH4] 1+) | 338.8 |
| CC/C=C\C/C=C\C/C=C\C/C=C\C/C=C\CCCCCC(=O)O[C@@H](CO)COC(=O)CCCCCCC/C=C\C/C=C\CCCCC [DG 18:2_22:5_0:0] (ion (formula + adduct): [C43H70O5+NH4] 1+) | 266.9 |
| CC/C=C\C/C=C\C/C=C\C/C=C\C/C=C\C/C=C\CCC(=O)OC[C@@H](COC(=O)CCCCCCC/C=C\C/C=C\CCCCC)OC(=O)CC/C=C\C/C=C\C/C=C\C/C=C\C/C=C\C/C=C\CC [TG 18:2_22:6_22:6] (ion (formula + adduct): [C65H98O6+NH4] 1+) | 333.6 |
| CCCCC/C=C\C/C=C\CCCCCCCC(=O)O[C@H](COC(=O)CCCCCCC/C=C\CCCCCCCC)COC(=O)CCCCCCC/C=C\CCCCCCCCC [TG 18:1_18:2_19:1] (ion (formula + adduct): [C58H104O6+NH4] 1+) | 327 |
| CCCCC/C=C\C/C=C\C/C=C\C/C=C\CCCC(=O)O[C@H](COC(=O)CCCCCCCCCCCCCCCCCC)COP(=O)([O-])OCC[N+](C)(C)C [PC 19:0@_20:4] (ion (formula + adduct): [C47H86NO8P+H] 1+) | 298 |
| CCCCC/C=C\C/C=C\CCCCCCCC(=O)OC[C@H](CO)OC(=O)CCCCCCCCC/C=C\CCCCCCCC [DG 18:2_20:1_0:0] (ion (formula + adduct): [C41H74O5+NH4] 1+) | 268.2 |
| CCCCC/C=C\CCCCCCCC(=O)O[C@H](COC(=O)CCCCCCCCCCCCCC)COC(=O)CCCCCCCCCCCCCCC [TG 15:0_15:1_16:0] (ion (formula + adduct): [C49H92O6+NH4] 1+) | 305.9 |

---

assay: TIMS collisional cross section (CCS, N2) of the lipid ion; higher = larger ion cross section; conditions: sample type: HeLa; ionization mode: positive; one isomer drawn
Parameter: TIMS collisional cross section (Å²)

Solved entries:
| Compound | Measurement Unit | Numeric Result |
| --- | --- | --- |
| CCCC/C=C\CCCCCCCC(=O)OC[C@H](COC(=O)CCCCCCC/C=C\CCCCCCCC)OC(=O)CCCCCCC/C=C\CCCCCC [TG 14:1_16:1_18:1] (ion (formula + adduct): [C51H92O6+NH4] 1+) | Å² | 307.85 |
| CCCCCCCCCCCCC/C=C/[C@@H](O)[C@H](COP(=O)([O-])OCC[N+](C)(C)C)NC(=O)CCCCCCCCCCCCCCCCCCCCCCC [SM d18:1_24:0@] (ion (formula + adduct): [C47H95N2O6P+H] 1+) | Å² | 308.3 |

(P) CCCCCCCCCCCCCCCCCCCC(=O)OC[C@@H](COC(=O)CCCCCCCCCCCCC)OC(=O)CCCCCCCCCCCCCCCCC [TG 14:0_18:0_20:0] (ion (formula + adduct): [C55H106O6+NH4] 1+)
(Q) CCCCCC/C=C\CCCCCCCC(=O)OC[C@@H](O)COP(=O)(O)OCCN [LPE 16:1_0:0] (ion (formula + adduct): [C21H42NO7P+H] 1+)
API: POST /compare with P and Q ; response names the item with higher TIMS collisional cross section. Reply briefly: the label of your chosen item. P
(P: 326.4 Å², Q: 210.1 Å²)

---

test: TIMS collisional cross section (CCS, N2) of the lipid ion; higher = larger ion cross section; conditions: sample type: Liver; ionization mode: positive; one isomer drawn
Parameter: TIMS collisional cross section (Å²)

| Compound | Parameter | Measurement Unit | Numeric Result |
| --- | --- | --- | --- |
| CCCCCCCC/C=C\C/C=C\C/C=C\CCCC(=O)O[C@H](COC(=O)CCCCCCCCCCCCCCC)COP(=O)([O-])OCC[N+](C)(C)C [PC 16:0@_20:3] (ion (formula + adduct): [C44H82NO8P+H] 1+) | TIMS collisional cross section | Å² | 289.8 |
| CCCCCCCCCCCCC/C=C/[C@@H](O)[C@H](CO)NC(=O)CCCCCCCCCCCCCCCCCCCCCCC [Cer d18:1_24:0@] (ion (formula + adduct): [C42H83NO3+H] 1+) | TIMS collisional cross section | Å² | 281.2 |
| CCCCC/C=C\C/C=C\C/C=C\C/C=C\C/C=C\CCC(=O)O[C@H](COC(=O)CCCCCCCCCCCCCCCCC)COP(=O)([O-])OCC[N+](C)(C)C [PC 18:0_22:5] (ion (formula + adduct): [C48H86NO8P+H] 1+) | TIMS collisional cross section | Å² | 299.3 |
| CCCCC/C=C\C/C=C\C/C=C\C/C=C\CCCC(=O)O[C@H](COC(=O)CCCCCCCCCCCCCCCCC)COP(=O)(O)OCCN [PE 18:0_20:4@] (ion (formula + adduct): [C43H78NO8P+H] 1+) | TIMS collisional cross section | Å² | 283.9 |
| CC/C=C\C/C=C\C/C=C\C/C=C\C/C=C\C/C=C\CCC(=O)O[C@H](COC(=O)CCCCCCCCCCCCCC)COP(=O)(O)OCCN [PE 15:0@_22:6] (ion (formula + adduct): [C42H72NO8P+H] 1+) | TIMS collisional cross section | Å² | 275.7 |
| CCCCCCCCCCCCCCCCCC(=O)O[C@H](COC(=O)CCCCCCC)COP(=O)([O-])OCC[N+](C)(C)C [PC 8:0_18:0@] (ion (formula + adduct): [C34H68NO8P+H] 1+) | TIMS collisional cross section | Å² | 265.4 |
| CCCCC/C=C\CCCCCCCC(=O)OC[C@H](COC(=O)CCCCCCC/C=C\CCCCCCC)OC(=O)CCCCCCC/C=C\CCCCCC [TG 15:1_16:1_17:1] (ion (formula + adduct): [C51H92O6+NH4] 1+) | TIMS collisional cross section | Å² | 308.7 |
| CCCCC/C=C\C/C=C\C/C=C\C/C=C\CCCC(=O)OC[C@@H](COC(=O)CCCCCCC/C=C\C/C=C\CCCCC)OC(=O)CCCCCCC/C=C\C/C=C\CCCCC [TG 18:2_18:2_20:4] (ion (formula + adduct): [C59H98O6+NH4] 1+) | TIMS collisional cross section | Å² | 323.3 |
| CCCCCCCCCCCCCCCCCCCCCC(=O)OC[C@@H](COC(=O)CCCCCCCCCCCCCCCCC)OC(=O)CCCCCCCCCCCCCCCCC [TG 18:0_18:0_22:0] (ion (formula + adduct): [C61H118O6+NH4] 1+) | TIMS collisional cross section | Å² | 344.1 |

---

test: TIMS collisional cross section (CCS, N2) of the lipid ion; higher = larger ion cross section; settings: sample type: Liver; ionization mode: positive; one isomer drawn
Parameter: TIMS collisional cross section (Å²)

| Compound | Parameter | Numeric Result |
| --- | --- | --- |
| CCCCC/C=C\C/C=C\CCCCCCCC(=O)O[C@H](COC(=O)CCCCCCC/C=C\CCCCCCCC)COP(=O)(O)OCCN [PE 18:1_18:2] (ion (formula + adduct): [C41H76NO8P+H] 1+) | TIMS collisional cross section | 276.1 |
| CC/C=C\C/C=C\C/C=C\CCCCCCCC(=O)O[C@@H](COC(=O)CCC/C=C\C/C=C\C/C=C\C/C=C\CCCCC)COC(=O)CCCCCCC/C=C\C/C=C\CCCCC [TG 18:2_18:3_20:4] (ion (formula + adduct): [C59H96O6+NH4] 1+) | TIMS collisional cross section | 321.6 |
| CCCCCCCCCC/C=C\CCCCCCCC(=O)OC[C@@H](O)COP(=O)([O-])OCC[N+](C)(C)C [LPC 20:1_0:0] (ion (formula + adduct): [C28H56NO7P+H] 1+) | TIMS collisional cross section | 239 |
| CC/C=C\C/C=C\C/C=C\C/C=C\C/C=C\CCCCCC(=O)OC[C@@H](COC(=O)CCCCCCC/C=C\C/C=C\CCCCC)OC(=O)CCC/C=C\C/C=C\C/C=C\C/C=C\CCCCC [TG 18:2_20:4_22:5] (ion (formula + adduct): [C63H100O6+NH4] 1+) | TIMS collisional cross section | 333 |

(1) CCCCC/C=C\C/C=C\CCCCCCCC(=O)OC[C@H](COC(=O)CCCCCCCCC/C=C\CCCCCCCCCC)OC(=O)CCCCCCC/C=C\CCCCCCCCC [TG 18:2_19:1_22:1] (ion (formula + adduct): [C62H112O6+NH4] 1+)
(2) CCCCC/C=C\C/C=C\C/C=C\CCCCCCC(=O)OC[C@@H](O)COP(=O)([O-])OCC[N+](C)(C)C [LPC 20:3_0:0] (ion (formula + adduct): [C28H52NO7P+H] 1+)
Lab note: check whether 1 or 2 has the lower measured TIMS collisional cross section. Reply briefly: the label of your chosen item. 2
